molecular target: Serotonin (5-HT) receptor (Rattus norvegicus) (UniProt P35563+P35365+P32305+P31388+Q9JJ16+P28564+P30994+Q62758+P08909+P14842+P30940+P35364+P19327+P28565); test: Subcutaneous dose giving half-maximal decrease of 5-HTP formation in the rat brain hemispheres (cortex); type: functional, tissue-based
Listed compounds paired with reported ED50
Give the quantity in µmol/kg, number only.

Examples from the recorded data:
>  <COMPOUND>
CCCN(CC)C1CCc2cccc(O)c2C1 (stereo not drawn)

>  <VAL>
0.066

$$$$
>  <COMPOUND>
CCCCNC1CCc2cccc(O)c2C1 (stereo not drawn)

>  <VAL>
6.3

$$$$
>  <COMPOUND>
CCCN(CCC)[C@H]1CCc2cccc(O)c2C1

>  <VAL>
0.077

$$$$
>  <COMPOUND>
CCCCN(CCC)C1CCc2cccc(O)c2C1 (stereo not drawn)

>  <VAL>
0.34

$$$$
>  <COMPOUND>
CN(C)C1CCc2cccc(O)c2C1 (stereo not drawn)

>  <VAL>
0.36

$$$$
>  <COMPOUND>
CCN(CC)C(=O)[C@@H]1C=C2c3cccc4[nH]cc(c34)C[C@H]2N(C)C1 [LYSERGIDE]

>  <VAL>
0.036

$$$$
>  <COMPOUND>
CCCCN(CCCC)C1CCc2cccc(O)c2C1 (stereo not drawn)

>  <VAL>
5.7

$$$$
>  <COMPOUND>
CC(C)NC1CCc2cccc(O)c2C1 (stereo not drawn)

>  <VAL>
4.1

$$$$
>  <COMPOUND>
CCCN(Cc1ccccc1)C1CCc2cccc(O)c2C1 (stereo not drawn)

>  <VAL>
2.3

$$$$
>  <COMPOUND>
CCCN(CCC)[C@@H]1CCc2cccc(O)c2C1

>  <VAL>
0.05

$$$$

Query block: Look at this compound and give its reported ED50. CCCN(CCC)C1CCc2cccc(O)c2C1 (racemic)
Result block: 0.063

Query block: Look at this compound and give its reported ED50. CNC1CCc2cccc(O)c2C1 (stereo not drawn)
Result block: 1.8

Query block: Look at this compound and give its reported ED50. CCNC1CCc2cccc(O)c2C1 (stereo not drawn)
Result block: 0.22

====

molecular target: Serotonin (5-HT) receptor (Rattus norvegicus) (UniProt P35563+P35365+P32305+P31388+Q9JJ16+P28564+P30994+Q62758+P08909+P14842+P30940+P35364+P19327+P28565); assay: Subcutaneous dose giving half-maximal decrease of 5-HTP formation in the rat brain (limbic); assay type: functional, tissue-based
PROPERTY MEASURED: ED50

Examples from the recorded data:
>  <COMPOUND>
CCCCN(CCCC)C1CCc2cccc(O)c2C1 (stereo not drawn)

>  <PROPERTY MEASURED>
ED50

>  <VAL>
5 µmol/kg

$$$$
>  <COMPOUND>
Oc1cccc2c1CC(N1CCCCC1)CC2 (stereo not drawn)

>  <PROPERTY MEASURED>
ED50

>  <VAL>
1.6 µmol/kg

$$$$

Now for a further compound.
Query block: Look at this compound and give its reported ED50. CCCN(CCC)[C@H]1CCc2cccc(O)c2C1
Result block: 0.061 µmol/kg

====

target: Serotonin (5-HT) receptor (Rattus norvegicus) (UniProt P35563+P35365+P32305+P31388+Q9JJ16+P28564+P30994+Q62758+P08909+P14842+P30940+P35364+P19327+P28565); assay: Subcutaneous dose giving half-maximal decrease of 5-HTP formation in the rat brain (striatum); format: functional, tissue-based
PROPERTY MEASURED: log10 ED50 (log10 of the value in µmol/kg)
// units: µmol/kg (pre-log); metric: ED50; scale: log10

Query block: Look at this molecule and give its reported log10 ED50. CCCNC1CCc2cccc(O)c2C1 (configuration not stated)
Result block: -0.82

Query block: Look at this molecule and give its reported log10 ED50. CCNC1CCc2cccc(O)c2C1 (configuration not stated)
Result block: -0.70

Query block: Look at this molecule and give its reported log10 ED50. CCN(CC)C1CCc2cccc(O)c2C1 (configuration not stated)
Result block: -1.17

Query block: Look at this molecule and give its reported log10 ED50. CCCN(Cc1ccccc1)C1CCc2cccc(O)c2C1 (configuration not stated)
Result block: 0.46

Query block: Look at this molecule and give its reported log10 ED50. CCCN(CCC)[C@@H]1CCc2cccc(O)c2C1
Result block: -1.33

Query block: Look at this molecule and give its reported log10 ED50. CC(C)NC1CCc2cccc(O)c2C1 (configuration not stated)
Result block: 0.46

Query block: Look at this molecule and give its reported log10 ED50. CCN(CC)C(=O)[C@@H]1C=C2c3cccc4[nH]cc(c34)C[C@H]2N(C)C1 [LYSERGIDE]
Result block: -1.46

Query block: Look at this molecule and give its reported log10 ED50. CCCN(CCC)[C@H]1CCc2cccc(O)c2C1
Result block: -1.19

Query block: Look at this molecule and give its reported log10 ED50. CN(C)C1CCc2cccc(O)c2C1 (configuration not stated)
Result block: -0.37

Query block: Look at this molecule and give its reported log10 ED50. CCCCN(CCCC)C1CCc2cccc(O)c2C1 (configuration not stated)
Result block: 0.82

Query block: Look at this molecule and give its reported log10 ED50. CCCCN(CCC)C1CCc2cccc(O)c2C1 (configuration not stated)
Result block: -0.59

Query block: Look at this molecule and give its reported log10 ED50. CCCCNC1CCc2cccc(O)c2C1 (configuration not stated)
Result block: 0.65

====

biological target: Serotonin (5-HT) receptor (Rattus norvegicus) (UniProt P35563+P35365+P32305+P31388+Q9JJ16+P28564+P30994+Q62758+P08909+P14842+P30940+P35364+P19327+P28565); experiment: Subcutaneous dose giving half-maximal decrease of 5-HTP formation in the rat brain (limbic); type: functional, tissue-based
Listed compounds paired with reported ED50
Give the quantity in µmol/kg, number only.

Examples from the recorded data:
>  <COMPOUND>
CN(C)C1CCc2cccc(O)c2C1 (centres undefined)

>  <ED50, µmol/kg>
0.38

$$$$
>  <COMPOUND>
CCCN(Cc1ccccc1)C1CCc2cccc(O)c2C1 (centres undefined)

>  <ED50, µmol/kg>
2.7

$$$$
>  <COMPOUND>
CCN(CC)C1CCc2cccc(O)c2C1 (centres undefined)

>  <ED50, µmol/kg>
0.054

$$$$
>  <COMPOUND>
CCCN(CCC)C1CCc2cccc(O)c2C1 (racemic)

>  <ED50, µmol/kg>
0.052

$$$$
>  <COMPOUND>
CCNC1CCc2cccc(O)c2C1 (centres undefined)

>  <ED50, µmol/kg>
0.27

$$$$

Query block: Look at this compound and give its reported ED50. CCN(CC)C(=O)[C@@H]1C=C2c3cccc4[nH]cc(c34)C[C@H]2N(C)C1 [LYSERGIDE]
Result block: 0.036

Query block: Look at this compound and give its reported ED50. CCCN(CCC)[C@@H]1CCc2cccc(O)c2C1
Result block: 0.036

Query block: Look at this compound and give its reported ED50. CCCCN(CCC)C1CCc2cccc(O)c2C1 (centres undefined)
Result block: 0.27

Query block: Look at this compound and give its reported ED50. CCCNC1CCc2cccc(O)c2C1 (centres undefined)
Result block: 0.14

Query block: Look at this compound and give its reported ED50. CCCN(CCC)C1CCc2cccc(OC)c2C1 (centres undefined)
Result block: 0.34

====

biological target: Serotonin (5-HT) receptor (Rattus norvegicus) (UniProt P35563+P35365+P32305+P31388+Q9JJ16+P28564+P30994+Q62758+P08909+P14842+P30940+P35364+P19327+P28565); assay: Subcutaneous dose giving half-maximal decrease of 5-HTP formation in the rat brain hemispheres (cortex); assay type: functional, tissue-based
Listed compounds paired with reported ED50
Please answer using a numeric value trailed by its unit.

>  <COMPOUND>
CCN(CC)C1CCc2cccc(O)c2C1 (centres undefined)

>  <ED50>
0.07 µmol/kg

$$$$
>  <COMPOUND>
CCCNC1CCc2cccc(O)c2C1 (centres undefined)

>  <ED50>
0.18 µmol/kg

$$$$

Query block: Look at this compound and give its reported ED50. Oc1cccc2c1CC(N1CCCCC1)CC2 (centres undefined)
Result block: 1.4 µmol/kg

Query block: Look at this compound and give its reported ED50. CCCN(CCC)C1CCc2cccc(OC)c2C1 (centres undefined)
Result block: 0.23 µmol/kg

====

molecular target: Dopamine receptor (Rattus norvegicus) (UniProt P25115+P19020+P30729+P18901+P61169); test: Subcutaneous dose giving half-maximal decrease of Dopa formation in the rat brain (limbic); assay type: functional, tissue-based
Active and inactive are the calls of the source. The calls are words filed in the database; no cut-off is given here.
PROPERTY MEASURED: ED50

Examples from the recorded data:
>  <COMPOUND>
CCCN(CCC)[C@H]1CCc2cccc(O)c2C1

>  <VAL>
inactive

$$$$
>  <COMPOUND>
CCCCNC1CCc2cccc(O)c2C1 (configuration not stated)

>  <VAL>
inactive

$$$$
>  <COMPOUND>
CCCN(CCC)C1CCc2cccc(OC)c2C1 (configuration not stated)

>  <VAL>
inactive

$$$$
>  <COMPOUND>
CCCCN(CCCC)C1CCc2cccc(O)c2C1 (configuration not stated)

>  <VAL>
inactive

$$$$
>  <COMPOUND>
CN(C)C1CCc2cccc(O)c2C1 (configuration not stated)

>  <VAL>
inactive

$$$$

Query block: Look at this compound and give its reported ED50. CCCNC1CCc2cccc(O)c2C1 (configuration not stated)
Result block: inactive
